- systemName: recombinant eIF4E (Homo sapiens (Human))
- assayDetails: Fluorescence polarization competition assay for eIF4E binding potency
- details: fluorescence polarization competition, 75 nM recombinant eIF4E, 20 nM EDA-m7GDP-ATTO-550; IC50 class; read-out: elF4E FP
pIC50: −log10 of the molar value.
Parameter pIC50: see the listing below.

Name the reported pIC50 value associated with the compound N#Cc1cc2c(=O)n(CCOc3ccc(Cl)cc3-c3ncc(C(=O)O)s3)cnc2cn1 [compound 52] < 6.00

Name the reported pIC50 value associated with the compound Cc1cc(-c2cc(Cl)ccc2OCCn2c(C)nc3cc(F)c(CN4CCOCC4)c(C#N)c3c2=O)c2scc(C(=O)O)c2n1 [compound 367] > 7.30

Name the reported pIC50 value associated with the compound Cc1nc2cc(C(F)(F)F)cc(C#N)c2c(=O)n1CCOc1ccc(Cl)cc1-c1ccnc2c(C(=O)O)coc12 [compound 325] 6.00 to 7.30

Name the reported pIC50 value associated with the compound Cc1cc(-c2cc(Cl)ccc2OCCn2c(C)nc3cnc(N4CC(OC(F)F)C4)c(C#N)c3c2=O)c2scc(C(=O)O)c2n1 [compound 1041] > 7.30

Name the reported pIC50 value associated with the compound Cc1cc(-c2cc(Cl)ccc2OCCn2c(C)nc3c(C)nc(CC4CCOCC4)c(C#N)c3c2=O)c2scc(C(=O)O)c2n1 [compound 400] > 7.30

Name the reported pIC50 value associated with the compound Cc1nc2cc(C(F)(F)F)c(CC3CN(CCF)C3)c(C#N)c2c(=O)n1CCOc1ccc(Cl)cc1-c1ccnc2c(C(=O)O)csc12 [compound 321] > 7.30

====

- systemName: recombinant eIF4E (Homo sapiens (Human))
- assayDetails: Fluorescence polarization competition assay for eIF4E binding potency
- details: inhibition of eIF4E/EDA-m7GDP-ATTO-550 binding by 50%; Table 4B calculated values; read-out: IC50
Parameter IC50: see the listing below.
Report the figure in nM without appending any unit label.

Item: Cc1nc2cc(C(F)F)c(OC(F)(F)F)c(C#N)c2c(=O)n1CCOc1ccc(Cl)cc1-c1ccnc2c(C(=O)O)csc12 Test system: recombinant eIF4E (Homo sapiens (Human)) Read-out: IC50 Value: ? 29.2

====

- systemName: recombinant eIF4E (Homo sapiens (Human))
- assayDetails: Fluorescence polarization competition assay for eIF4E binding potency
- details: inhibition of eIF4E/EDA-m7GDP-ATTO-550 binding by 50%; Table 4B calculated values; read-out: IC50
- Procedure: Compounds were screened for eIF4E binding potency using a fluorescence polarization competition assay. All binding reactions were performed in fluorescence polarization buffer (FPB) containing 20 mM Tris pH 7.5, 100 mM NaCl, 1 mM DTT, and 0.02% Tween-20. Final binding reactions contained 75 nM recombinant eIF4E (Beryllium, custom order), 20 nM EDA-m^7GDP-ATTO-550 (Jena Bioscience, NU-827-550) and varying concentrations of the inhibitory compound of interest. […]
measurementLabel: pIC50
pIC50 here is simply -log10 of the concentration when that concentration is written in mol/L.

The examples below pair each entry with its known result.
• Cn1ccc2ncn(CCOc3ccc(Cl)cc3-c3cccc(C(=O)O)c3)c(=O)c21 = 4.57
• Cc1nc2cc(CN(C)C)c(C(F)F)c(C#N)c2c(=O)n1CCOc1ccc(Cl)cc1-c1ccnc2c(C(=O)O)csc12 = 7.34

Name the reported pIC50 value associated with the molecule Cc1nc2cc(C(F)(F)Cl)cc(C#N)c2c(=O)n1CCOc1ccc(Cl)cc1-c1ccnc2c(C(=O)O)csc12 7.61

Name the reported pIC50 value associated with the molecule Cc1cc(-c2cc(Cl)ccc2OCCn2c(C)nc3cc(C(F)(F)F)c(S(C)(=O)=O)nc3c2=O)c2scc(C(=O)O)c2n1 8.39

Name the reported pIC50 value associated with the molecule Cc1nc2cnc(N(C)C3CCN([C@@H]4C[C@H]4C(F)(F)F)CC3)c(C#N)c2c(=O)n1CC#Cc1ccc(Cl)cc1-c1ccnc2c(C(=O)O)csc12 7.66

Name the reported pIC50 value associated with the molecule N#Cc1c(C(F)F)ccc2nc(C(F)F)n(CCOc3ccc(Cl)cc3-c3ccnc4c(C(=O)O)csc34)c(=O)c12 7.20

Name the reported pIC50 value associated with the molecule CCc1cc(-c2cc(Cl)ccc2OCCn2c(C)nc3cnc(N4CCN(C)CC4)c(C#N)c3c2=O)c2scc(C(=O)O)c2n1 7.42

====

- systemName: recombinant eIF4E (Homo sapiens (Human))
- assayDetails: Fluorescence polarization competition assay for eIF4E binding potency
- details: inhibition of eIF4E/EDA-m7GDP-ATTO-550 binding by 50%; Table 4B calculated values; read-out: IC50
- Procedure: Compounds were screened for eIF4E binding potency using a fluorescence polarization competition assay. All binding reactions were performed in fluorescence polarization buffer (FPB) containing 20 mM Tris pH 7.5, 100 mM NaCl, 1 mM DTT, and 0.02% Tween-20. Final binding reactions contained 75 nM recombinant eIF4E (Beryllium, custom order), 20 nM EDA-m^7GDP-ATTO-550 (Jena Bioscience, NU-827-550) and varying concentrations of the inhibitory compound of interest. […]
measurementLabel: pIC50
pIC50 here is simply -log10 of the concentration when that concentration is written in mol/L.

* Cc1cc(-c2cc(Cl)ccc2OCCn2c(C)nc3cc(C(F)(F)F)c(CC4CCNCC4)c(C#N)c3c2=O)c2scc(C(=O)O)c2n1 | 7.33

Name the reported pIC50 value associated with the compound O=C(O)c1cccc(-c2cc(Cl)ccc2OCCn2cnc3cccnc3c2=O)c1 6.24

Name the reported pIC50 value associated with the compound Cc1cc(-c2cc(Cl)ccc2OCCn2c(C)nc3cc(C(F)(F)F)c(N4CCN(C)CC4)nc3c2=O)c2scc(C(=O)O)c2n1 8.21

Name the reported pIC50 value associated with the compound Cc1ncc(C#N)c2c(=O)n(CCOc3ccc(Cl)cc3-c3ccc(C)c4c(C(=O)O)csc34)c(C)nc12 7.42

Name the reported pIC50 value associated with the compound Cc1cc(-c2cc(Cl)ccc2OCCn2c(C)nc3cc(C(F)(F)F)c(N4CCN(C)CC4)c(C#N)c3c2=O)c2sccc2n1 8.63

Name the reported pIC50 value associated with the compound Cc1nc2cnc(N(C)C3CCN(CC(F)(F)F)CC3)c(C#N)c2c(=O)n1CCOc1ccc(Cl)cc1-c1ccnc2c(C(=O)O)csc12 7.55

====

- systemName: recombinant eIF4E (Homo sapiens (Human), UniProt P06730)
- Sequence (P06730 whole entry): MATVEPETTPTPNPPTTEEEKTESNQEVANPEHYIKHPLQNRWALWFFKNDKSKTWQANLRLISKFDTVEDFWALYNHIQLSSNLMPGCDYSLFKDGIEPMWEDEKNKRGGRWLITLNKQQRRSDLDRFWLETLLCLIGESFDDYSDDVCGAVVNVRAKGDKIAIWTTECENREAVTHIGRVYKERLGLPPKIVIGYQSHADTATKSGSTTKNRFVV
- assayDetails: Fluorescence polarization competition assay for eIF4E binding potency
- details: fluorescence polarization competition, 75 nM recombinant eIF4E, 20 nM EDA-m7GDP-ATTO-550; IC50 class; read-out: elF4E FP
measurementLabel: IC50

The examples below pair each entry with its known result.
- Cc1nc(N2CCN(C)C3CC32)c(C#N)c2c(=O)n(CC#Cc3ccc(Cl)cc3-c3ccnc4c(C(=O)O)csc34)c(C)nc12 (stereo not shown): < 50 nM
- Cc1nc2c(F)c(CN(C)C)c(C(F)F)c(C#N)c2c(=O)n1CCOc1ccc(Cl)cc1-c1ccnc2c(C(=O)O)csc12: < 50 nM
- Cc1cccc(-c2nc(C)c3nc(C)n(CCOc4ccc(Cl)cc4-c4cc(C)nc5c(C(=O)O)csc45)c(=O)c3c2C#N)c1: < 50 nM

Name the reported IC50 value associated with the compound Cc1cc(-c2cc(Cl)ccc2OCCn2c(C)nc3cc(Cl)c(-c4cccnc4)c(C#N)c3c2=O)c2scc(C(=O)O)c2n1 < 50 nM

====

- systemName: recombinant eIF4E (Homo sapiens (Human), UniProt P06730)
- assayDetails: Fluorescence polarization competition assay for eIF4E binding potency
- details: fluorescence polarization competition, 75 nM recombinant eIF4E, 20 nM EDA-m7GDP-ATTO-550; IC50 class; read-out: elF4E FP
measurementLabel: IC50

Name the reported IC50 value associated with the compound Cc1cc(-c2cc(Cl)ccc2OCCn2c(C)nc3cnc(NCC(F)(F)F)c(C#N)c3c2=O)c2scc(C(=O)O)c2n1 < 50 nM

====

- systemName: recombinant eIF4E (Homo sapiens (Human))
- assayDetails: Fluorescence polarization competition assay for eIF4E binding potency
- details: inhibition of eIF4E/EDA-m7GDP-ATTO-550 binding by 50%; Table 4B calculated values; read-out: IC50
measurementLabel: IC50 (nM)
Report the figure in nM without appending any unit label.

- Cc1cc(-c2cc(Cl)ccc2OCCn2c(C)nc3cnc(C4CC4)c(C#N)c3c2=O)c2scc(C(=O)O)c2n1: 9.07

Name the reported IC50 value associated with the compound Cc1nc2c(F)cc(CN(C)C)c(C#N)c2c(=O)n1CCOc1ccc(Cl)cc1-c1ccnc2c(C(=O)O)csc12 15.2

Name the reported IC50 value associated with the compound C#Cc1c(-c2cc(Cl)ccc2OCCn2c(C)nc3ccc(C(F)F)c(C#N)c3c2=O)ccnc1C(=O)O 12.8

Name the reported IC50 value associated with the compound Cc1cc(-c2cc(Cl)ccc2OCCn2c(C)nc3cc(C(F)F)c(N4CC(F)(F)C4)c(C#N)c3c2=O)c2scc(C(=O)O)c2n1 9.35

Name the reported IC50 value associated with the compound Cc1nc2cnc(N(C)C3CCN(CC4(F)CCC4)CC3)c(C#N)c2c(=O)n1CC#Cc1ccc(Cl)cc1-c1ccnc2c(C(=O)O)csc12 9.32
